Please go through the items and note down their koff.
- System Name: recombinant human ROR1 extracellular domain with a C-terminal 6xHis tag (human) (UniProt Q01973)
- Sequence (Q01973 other isoform, or with tags, fused parts or gaps): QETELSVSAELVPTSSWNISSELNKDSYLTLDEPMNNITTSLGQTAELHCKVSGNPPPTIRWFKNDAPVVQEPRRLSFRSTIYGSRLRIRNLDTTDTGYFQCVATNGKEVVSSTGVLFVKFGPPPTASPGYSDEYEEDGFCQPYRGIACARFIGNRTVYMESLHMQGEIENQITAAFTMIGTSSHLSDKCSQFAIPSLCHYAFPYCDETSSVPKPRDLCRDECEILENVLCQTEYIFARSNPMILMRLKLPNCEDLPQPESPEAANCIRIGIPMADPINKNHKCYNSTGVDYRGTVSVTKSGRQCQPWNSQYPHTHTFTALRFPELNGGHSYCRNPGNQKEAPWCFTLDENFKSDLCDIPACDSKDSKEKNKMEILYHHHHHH
- Run Description: SPR (Biacore), scFv-mFc captured on an anti-mouse IgG chip, ROR1 ECD 6xHis injected at 183, 61.0, 20.33, 6.78 and 2.26 nM, multi-cycle kinetics, 1:1 Binding model, 25 °C
Numbers only, in s⁻¹.

For orientation, consider the following solved cases.
| Binder | Reported Property | Numeric Readout |
| --- | --- | --- |
| anti-ROR1 scFv ROR1-1 fused to murine IgG2a Fc (scFv-mFc) (Fc fusion, part only; not given: murine IgG2a Fc and junction, not shown: another chain or arm of the molecule; a dimerising Fc or GST) scFv: QVQLQESGPGLVKPSETLSLTCTVSGGSISNYYWSWIRQPAGKGLEWIGRIYTSGSTNYNPSLKSRVTMSVDTSKNQFSLKLSSLTAADTAIYYCARYYDILTGFFDYWGQGTLVTVSSGGGGSGGGGSGGGGSVIWMTQSPSLLSASTGDSVTISCRMSQDISSYLAWYQQKPGKAPELLIYAASSLQSGVPSRFSGSGSGTDFTLTISSLQSEDFATYYCQQYDSFPPTFGQGTKVEFKR | koff | 0.005 |
| anti-ROR1 scFv ROR1-4 fused to murine IgG2a Fc (scFv-mFc) (Fc fusion, part only; not given: murine IgG2a Fc and junction, not shown: another chain or arm of the molecule; a dimerising Fc or GST) scFv: QVQLLQSGAEVKKPGASVKVSCKASGYTFTSYGISWVRQAPGQGLEWMGWISAYTGNTRYAQKLQGRVTMTTDTSTSTAYMELRSLRSDDTAVYYCAREEGATTDYDYYGMDVWGQGTAVTVSSGGGGSGGGGSGGGGSQLVLTQSPSASASLGASVKLTCTLSSGHSSYAIAWHQQQPEKGPRYLMKLNSDGSHSKGDGIPDRFSGSSSGAERYLTISSLQSEDEADYYCQTWGTGIRVFGGGTKLTVLG | koff | 0.00022 |

Qu. Return koff (reported value) for this binder: anti-ROR1 scFv ROR1-3 fused to murine IgG2a Fc (scFv-mFc) (Fc fusion, part only; not given: murine IgG2a Fc and junction, not shown: another chain or arm of the molecule; a dimerising Fc or GST) scFv: QVQLVQSGAEVKKPGASVKVSCKASGYTFTSYGISWVRQAPGQGLEWMGWISAYNGNTKYAQKLQGRVTMTTDTSTSTAYMELRSLRSDDTAVYYCARDEDILTGYNYYGMDVWGQGTTVTVSSGGGGSGGGGSGGGGSQLVLTQSPSASASLGASVKLTCTLSSGHSSYAIAWHQQQPEKGPRYLMKLNSDGSHSKGDGIPDRFSGSSSGAERYLTISSLQSEDEADYYCQTWGTGIRVFGGGTKLTVLG
Ans. 1.08e-05
